assayed system: PDGF-receptor beta enzyme comprising the tyrosine kinase domain (Homo sapiens)
Construct: from amino acid 545 to 1106 of GenBank Access NO: AAA36427
Sequence (P09619 545-1106): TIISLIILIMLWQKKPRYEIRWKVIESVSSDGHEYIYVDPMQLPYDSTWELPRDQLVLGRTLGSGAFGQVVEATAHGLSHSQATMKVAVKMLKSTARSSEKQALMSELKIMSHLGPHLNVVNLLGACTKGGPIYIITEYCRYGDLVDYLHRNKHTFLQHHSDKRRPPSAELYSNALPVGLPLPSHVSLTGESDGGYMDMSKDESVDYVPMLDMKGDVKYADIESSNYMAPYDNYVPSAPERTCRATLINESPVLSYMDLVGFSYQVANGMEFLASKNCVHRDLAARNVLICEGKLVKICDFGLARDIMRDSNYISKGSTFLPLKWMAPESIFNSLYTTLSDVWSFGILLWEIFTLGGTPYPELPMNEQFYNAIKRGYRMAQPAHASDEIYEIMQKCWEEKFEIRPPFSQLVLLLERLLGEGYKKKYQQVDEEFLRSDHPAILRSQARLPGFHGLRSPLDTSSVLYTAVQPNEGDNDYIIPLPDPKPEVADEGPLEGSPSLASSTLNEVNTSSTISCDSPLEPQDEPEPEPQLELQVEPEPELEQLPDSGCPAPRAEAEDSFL
assay: Inhibition of PDGF-receptor kinase activity (cell-free, PLC1 peptide, 33P Flashplate)
Assay type: biochemical
reported conditions: PDGF-R kinase activity; compound at 10 uM; read-out: Percent Inhibition @ 10 uM
Label t for high-side inhibition at 10 µM (at or above 70%) and f for low-side inhibition at 10 µM (below it).

The examples below pair each entry with its known result.
[[record]]
molecule = "CCOc1cc2c(cc1OCC)-c1n[nH]c(NCc3cccc(F)c3)c1C2 [Compound 294]"
category_label = "t"

[[record]]
molecule = "COc1cc2c(cc1OC)-c1c(c(Nc3cccc(F)c3)nn1C(=O)NCCNC(=O)c1ccccc1O)C2 [Compound 542]"
category_label = "f"

[[record]]
molecule = "COCCCOc1cc2c(cc1OC)-c1n[nH]c(Nc3cccc(F)c3)c1C2 [Compound 242]"
category_label = "t"

[[record]]
molecule = "COc1ccc2c(c1)-c1n[nH]c(Nc3cccc(F)c3)c1C2 [Compound 172]"
category_label = "f"

[[record]]
molecule = "COc1ccc(OC)c(Nc2[nH]nc3c2Cc2cc(F)ccc2-3)c1 [Compound 203]"
category_label = "t"

[[record]]
molecule = "CNC(=O)n1nc(Nc2cccc(F)c2)c2c1-c1cc(OC)c(OC)cc1C2 [Compound 578]"
category_label = "t"


Next item in the queue.
Form field: inhibition at 10 µM at least 70%? Entry: COc1cc2c(cc1OC)-c1n[nH]c(NCc3ccccc3Br)c1C2 [Compound 575]
t

The measurements presented in this section are drawn from patent US7196110B2.
